Target: T1, human CD8αα homodimer, recombinant protein (Acro Biosystems) (human, UniProt P01732 22-182)
T1 construct: also called CD8αα antigen; biotinylated CD8α recombinant protein (CDA-H82E3)
T1 sequence (P01732 22-182 limits assumed): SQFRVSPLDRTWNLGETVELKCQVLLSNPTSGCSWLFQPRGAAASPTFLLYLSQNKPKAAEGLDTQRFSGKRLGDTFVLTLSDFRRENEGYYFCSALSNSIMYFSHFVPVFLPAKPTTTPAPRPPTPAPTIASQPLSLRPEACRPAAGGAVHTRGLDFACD
Experiment: BLI kinetics, F(ab) on biotinylated CD8α (SA-XT sensor), 1:1 fit, 30 °C
Listed binders paired with reported kon
Use M⁻¹ s⁻¹ as the unit, but write only the number.

Guide cases for kon, answers given:
- binder: "CBD1040 (Fab, V domains shown, also called h1017-H5/L3 F(ab)) VH: QVQLVQSGAEVKKPGASVKISCKASRYTFTDYNLHWVRQAPGQGLEWIGFIYPYNGGTGYAQKFQGRATLTVDYSTSTAYMELSSLRSEDTAVYYCARDHRYNEGVSFDYWGQGTTLTVSS VL: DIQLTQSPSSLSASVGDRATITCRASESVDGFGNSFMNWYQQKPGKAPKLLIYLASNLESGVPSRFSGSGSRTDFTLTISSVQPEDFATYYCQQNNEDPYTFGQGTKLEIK"
  kon / M⁻¹ s⁻¹: 28000
- binder: "CDB1017p (Fab, V domains shown, CDB1017p [sic]; also called CBD1017p; mouse CT8 F(ab)) VH: EVQLQQSGPELVKPGASVKISCKASRYTFTDYNLHWVKLSHEKSLEWIGFIYPYNGGTGYNQKFKNKAKLTVDYSSSTAYMELRSLTSVDAAVYYCARDHRYNEGVSFDYWGQGTTLTVSS VL: NIVLTQSPASLAVSLGQRATISCRASESVDGFGNSFMNWYQQKPGQSPKLLIYLASNLESGVPARFSGSGSRTDFTLTIDPVEADDAATYYCQQNNEDPYTFGGGTKLEIK"
  kon / M⁻¹ s⁻¹: 65100

# evaluate next
[in] Item under review: CBD1039 (Fab, V domains shown, also called h1017-H5/L2 F(ab)) VH: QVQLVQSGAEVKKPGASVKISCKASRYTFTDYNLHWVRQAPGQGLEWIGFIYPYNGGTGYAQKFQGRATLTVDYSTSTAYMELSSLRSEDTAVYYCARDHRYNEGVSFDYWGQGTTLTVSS VL: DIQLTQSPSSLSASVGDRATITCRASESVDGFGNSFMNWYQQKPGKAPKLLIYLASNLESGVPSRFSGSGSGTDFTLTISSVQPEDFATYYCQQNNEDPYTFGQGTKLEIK . Reported kon?
[out] 50400

Hey, just so you know, these numbers are from patent US20250195685A1.
